test system: PBMC; experiment: Cytotoxicity against human PBMC assessed as reduction in cell viability after 72 hrs by MTT assay; format: cell-based
value.type: pIC50
// pIC50 here means minus log10 of the molar concentration (mol/L)

Take a look at these entries with their results.
[[record]]
compound = "C=C1C(=O)[C@]23[C@H](OC(=O)CCCCC4CCSS4)[C@H]1CC[C@H]2[C@@]12CO[C@]3(O)[C@@H](O)[C@@H]1C(C)(C)CC[C@@H]2OC(C)=O (some centres not stated)"
target_of_assay = "PBMC"
value_type = "pIC50"
measured_number = 4.54

[[record]]
compound = "C=C1C(=O)[C@@]23C(=O)OC[C@]4(C(=O)CCC(C)(C)[C@H]4C=O)[C@@H]2CC[C@@H]1[C@H]3OC(=O)CCC(=O)Oc1ccc(-c2cc(=S)ss2)cc1"
target_of_assay = "PBMC"
value_type = "pIC50"
measured_number = 4.78

[[record]]
compound = "C=C1C(=O)[C@@]23C(=O)OC[C@]4(C(=O)CCC(C)(C)[C@H]4C=O)[C@@H]2CC[C@@H]1[C@H]3OC(=O)c1ccccc1C(=O)Oc1ccc(-c2cc(=S)ss2)cc1"
target_of_assay = "PBMC"
value_type = "pIC50"
measured_number = 4.50

[[record]]
compound = "C=C1C(=O)[C@]23[C@H](OC(=O)CCC(=O)Oc4ccc(-c5cc(=S)ss5)cc4)[C@H]1CC[C@H]2[C@@]12CO[C@]3(O)[C@@H](O)[C@@H]1C(C)(C)CCC2=O"
target_of_assay = "PBMC"
value_type = "pIC50"
measured_number = 4.53


API: the following record is the query input.
Challenge: Find the measured pIC50 of C=C1C(=O)[C@@]23C(=O)OC[C@]4([C@@H](OC(C)=O)CCC(C)(C)[C@H]4C=O)[C@@H]2CC[C@@H]1[C@H]3OC(=O)CCCC(=O)Oc1ccc(-c2cc(=S)ss2)cc1 and report it.
Response given: 4.51

====

test system: L02; experiment: Cytotoxicity against human L02 cells assessed as reduction in cell viability after 72 hrs by MTT assay; type: cell-based; settings: L02, 72 h
value.type: pIC50
// pIC50 here means minus log10 of the molar concentration (mol/L)

Take a look at these entries with their results.
[[record]]
chemical_smiles = "C=C1C(=O)[C@@]23C(=O)OC[C@]4(C(=O)CCC(C)(C)[C@H]4C=O)[C@@H]2CC[C@@H]1[C@H]3OC(=O)CCC(=O)Oc1ccc(-c2cc(=S)ss2)cc1"
measured_number = 4.74

[[record]]
chemical_smiles = "C=C1C(=O)[C@]23[C@H](OC(=O)CCCC(=O)Oc4ccc(-c5cc(=S)ss5)cc4)[C@H]1CC[C@H]2[C@@]12CO[C@]3(O)[C@@H](O)[C@@H]1C(C)(C)CC[C@@H]2OC(C)=O"
measured_number = 4.83


API: the following record is the query input.
Challenge: Find the measured pIC50 of C=C1C(=O)[C@]23[C@H](OC(=O)CCC(=O)Oc4ccc(-c5cc(=S)ss5)cc4)[C@H]1CC[C@H]2[C@@]12CO[C@]3(O)[C@@H](O)[C@@H]1C(C)(C)CC[C@@H]2OC(C)=O and report it.
Response given: 4.63

====

test system: PBMC; experiment: Cytotoxicity against human PBMC assessed as reduction in cell viability after 72 hrs by MTT assay; format: cell-based
value.type: IC50

Take a look at these entries with their results.
[[record]]
molecule = "C=C1C(=O)[C@]23[C@H](O)[C@H]1CC[C@H]2[C@@]12CO[C@]3(O)[C@@H](O)[C@@H]1C(C)(C)CCC2=O"
result = "> 50 µM"

[[record]]
molecule = "C=C1C(=O)[C@]23[C@H](O)[C@H]1CC[C@H]2[C@@]12CO[C@@]3(O)[C@@H](O)[C@@H]1C(C)(C)CC[C@@H]2OC(C)=O"
result = "> 50 µM"


API: the following record is the query input.
Challenge: Give IC50 for this entry on PBMC: C=C1C(=O)[C@@]23C(=O)OC[C@]4(C(=O)CCC(C)(C)[C@H]4C=O)[C@@H]2CC[C@@H]1[C@H]3OC(=O)CCCCC1CCSS1 (stereo partly drawn)
Response given: > 50 µM

====

tested on: A549; assay: Antiproliferative activity against human A549 cells assessed as reduction in cell viability after 72 hrs by MTT assay; type: functional, cell-based; details: A549, 72 h
value.type: IC50 (µM)
Output spec: scalar in µM, unitless text.

[[record]]
molecule = "C=C1C(=O)[C@]23[C@H](OC(=O)CCC(=O)Oc4ccc(-c5cc(=S)ss5)cc4)[C@H]1CC[C@H]2[C@@]12CO[C@]3(O)[C@@H](O)[C@@H]1C(C)(C)CCC2=O"
target_of_assay = "A549"
value_type = "IC50"
unit_tag = "µM"
measured_number = 9.78


Challenge: Find the measured IC50 of C=C1C(=O)[C@]23[C@H](O)[C@H]1CC[C@H]2[C@@]12CO[C@]3(O)[C@@H](O)[C@@H]1C(C)(C)CCC2=O and report it.
Response given: 9.86

Challenge: Find the measured IC50 of C=C1C(=O)[C@]23[C@H](O)[C@H]1CC[C@H]2[C@@]12CO[C@@]3(O)[C@@H](O)[C@@H]1C(C)(C)CC[C@@H]2OC(C)=O and report it.
Response given: 13.5

Challenge: Find the measured IC50 of C=C1C(=O)[C@]23[C@H](O)[C@H]1CC[C@H]2[C@@]12CO[C@]3(O)[C@@H](O)[C@@H]1C(C)(C)CC[C@@H]2O [ORIDONIN] and report it.
Response given: 17.8

Challenge: Find the measured IC50 of C=C1C(=O)[C@@]23C(=O)OC[C@]4([C@@H](OC(C)=O)CCC(C)(C)[C@H]4C=O)[C@@H]2CC[C@@H]1[C@H]3O and report it.
Response given: 27.4

Challenge: Find the measured IC50 of C=C1C(=O)[C@]23[C@H](OC(=O)CCCCC4CCSS4)[C@H]1CC[C@H]2[C@@]12CO[C@]3(O)[C@@H](O)[C@@H]1C(C)(C)CC[C@@H]2OC(C)=O (stereo partly drawn) and report it.
Response given: 8.65

Challenge: Find the measured IC50 of C=C1C(=O)[C@@]23C(=O)OC[C@]4(C(=O)CCC(C)(C)[C@H]4C=O)[C@@H]2CC[C@@H]1[C@H]3OC(=O)CCCC(=O)Oc1ccc(-c2cc(=S)ss2)cc1 and report it.
Response given: 5.21

Challenge: Find the measured IC50 of C=C1C(=O)[C@@]23C(=O)OC[C@]4([C@@H](OC(C)=O)CCC(C)(C)[C@H]4C=O)[C@@H]2CC[C@@H]1[C@H]3OC(=O)CCCC(=O)Oc1ccc(-c2cc(=S)ss2)cc1 and report it.
Response given: 14.8

====

Overview of recorded IC50 for various compounds
system: L02; test: Cytotoxicity against human L02 cells assessed as reduction in cell viability after 72 hrs by MTT assay; format: cell-based; conditions: L02, 72 h

[[record]]
chemical_smiles = "C=C1C(=O)[C@@]23C(=O)OC[C@]4([C@@H](OC(C)=O)CCC(C)(C)[C@H]4C=O)[C@@H]2CC[C@@H]1[C@H]3O"
value_type = "IC50"
result = "> 50 µM"

[[record]]
chemical_smiles = "O=c1[nH]cc(F)c(=O)[nH]1"
value_type = "IC50"
result = "> 50 µM"


API: the following record is the query input.
Challenge: Find the measured IC50 of Oc1ccc(-c2cc(=S)ss2)cc1 and report it.
Response given: > 50 µM
